Please respond with reported metabolic activity: OD 492 nm divided by OD of control (control = 1) for every item in the list.
System: S sanguinis
method-notes: Phenotype microarray metabolic activity
Assay type: cell-based
experimental-setup: 24 hrs

Req: Output metabolic activity: OD 492 nm divided by OD of control (control = 1) of OC[C@H]1O[C@@](O)(CO)[C@@H](O[C@H]2O[C@H](CO)[C@@H](O)[C@H](O)[C@H]2O)[C@@H]1O
Resp: 1.3458

Req: Output metabolic activity: OD 492 nm divided by OD of control (control = 1) of OC[C@@H](O)[C@@H](O[C@H]1O[C@H](CO)[C@H](O)[C@H](O)[C@H]1O)[C@H](O)[C@@H](O)CO
Resp: 1.0364

Req: Output metabolic activity: OD 492 nm divided by OD of control (control = 1) of CC(=O)N[C@H](C=O)[C@@H](O)[C@H](O)[C@H](O)CO
Resp: 2.9770

Req: Output metabolic activity: OD 492 nm divided by OD of control (control = 1) of OC[C@H]1O[C@@](CO)(O[C@H]2O[C@H](CO)[C@@H](O)[C@H](O)[C@H]2O)[C@@H](O[C@H]2O[C@H](CO)[C@@H](O)[C@H](O)[C@H]2O)[C@@H]1O
Resp: 1.0227

Req: Output metabolic activity: OD 492 nm divided by OD of control (control = 1) of O[C@H]1[C@H](O)[C@@H](O)[C@H](O)[C@@H](O)[C@H]1O
Resp: 0.9436

----------
System: A. naeslundii
method-notes: Twenty-four hour biofilm growth (crystal violet)
Assay type: cell-based
experimental-setup: 25 μmol/ml
Description: The increase in biofilm formation of the tested bacteria in response to selected saccharides (D-turanose, D-lactitol, myo-inositol, and N-acetyl-D-mannosamine) was investigated by setting up biofilm growth assays in a nutritionally rich medium (brain heart infusion broth (BHI), Oxoid), over 24 hours. […] Quantification of the stained biofilm was performed by measuring the absorbance at 630 nm using a Multiskan Ascent microplate reader (Thermo Scientific). […]
Please respond with reported biofilm growth: OD 630 nm at 24 hrs divided by OD of control (control = 1) for every item in the list.
Write the number on its own, no unit after it.

Req: Output biofilm growth: OD 630 nm at 24 hrs divided by OD of control (control = 1) of OC[C@H]1O[C@@](O)(CO)[C@@H](O[C@H]2O[C@H](CO)[C@@H](O)[C@H](O)[C@H]2O)[C@@H]1O [D-Turanose]
Resp: 1.4411

Req: Output biofilm growth: OD 630 nm at 24 hrs divided by OD of control (control = 1) of OC[C@@H](O)[C@@H](O[C@H]1O[C@H](CO)[C@H](O)[C@H](O)[C@H]1O)[C@H](O)[C@@H](O)CO [D-Lactitol, 4-O-α-D-galactopyranosyl-D-glucitol]
Resp: 1.0428

Req: Output biofilm growth: OD 630 nm at 24 hrs divided by OD of control (control = 1) of CC(=O)N[C@H](C=O)[C@@H](O)[C@H](O)[C@H](O)CO [N-acetyl-D-mannosamine, 2-acetamido-2-deoxy-D-mannose]
Resp: 1.2220

Req: Output biofilm growth: OD 630 nm at 24 hrs divided by OD of control (control = 1) of O[C@H]1[C@H](O)[C@@H](O)[C@H](O)[C@@H](O)[C@H]1O [Myo-Inositol]
Resp: 1.0456

----------
Please respond with reported extent of growth: maximal OD630 over 24 hr divided by maximal OD of control (control = 1) for every item in the list.
Test system: Streptococcus gordonii
method-notes: Twenty-four hour optical density growth in BHI
Type: cell-based
experimental-setup: S gordonii; 5 μmol/ml
Write the number on its own, no unit after it.

Req: Find the measured extent of growth: maximal OD630 over 24 hr divided by maximal OD of control (control = 1) of CC(=O)N[C@H](C=O)[C@@H](O)[C@H](O)[C@H](O)CO [N-acetyl-D-mannosamine, 2-acetamido-2-deoxy-D-mannose] with Streptococcus gordonii as test system.
Resp: 0.9930

Req: Find the measured extent of growth: maximal OD630 over 24 hr divided by maximal OD of control (control = 1) of O[C@H]1[C@H](O)[C@@H](O)[C@H](O)[C@@H](O)[C@H]1O [Myo-Inositol] with Streptococcus gordonii as test system.
Resp: 0.9888

Req: Find the measured extent of growth: maximal OD630 over 24 hr divided by maximal OD of control (control = 1) of OC[C@H]1O[C@@](O)(CO)[C@@H](O[C@H]2O[C@H](CO)[C@@H](O)[C@H](O)[C@H]2O)[C@@H]1O [D-Turanose] with Streptococcus gordonii as test system.
Resp: 1.0397

Req: Find the measured extent of growth: maximal OD630 over 24 hr divided by maximal OD of control (control = 1) of OC[C@@H](O)[C@@H](O[C@H]1O[C@H](CO)[C@H](O)[C@H](O)[C@H]1O)[C@H](O)[C@@H](O)CO [D-Lactitol, 4-O-α-D-galactopyranosyl-D-glucitol] with Streptococcus gordonii as test system.
Resp: 0.9828

----------
Please respond with reported biofilm growth: OD 630 nm at 24 hrs divided by OD of control (control = 1) for every item in the list.
Test system: S. mutans
method-notes: Twenty-four hour biofilm growth (crystal violet)
Format: cell-based
experimental-setup: S mutans; 5 μmol/ml
Write the number on its own, no unit after it.

Req: Output biofilm growth: OD 630 nm at 24 hrs divided by OD of control (control = 1) of O[C@H]1[C@H](O)[C@@H](O)[C@H](O)[C@@H](O)[C@H]1O
Resp: 0.9177

Req: Output biofilm growth: OD 630 nm at 24 hrs divided by OD of control (control = 1) of OC[C@H]1O[C@@](O)(CO)[C@@H](O[C@H]2O[C@H](CO)[C@@H](O)[C@H](O)[C@H]2O)[C@@H]1O
Resp: 1.0356

Req: Output biofilm growth: OD 630 nm at 24 hrs divided by OD of control (control = 1) of CC(=O)N[C@H](C=O)[C@@H](O)[C@H](O)[C@H](O)CO
Resp: 0.8572

Req: Output biofilm growth: OD 630 nm at 24 hrs divided by OD of control (control = 1) of OC[C@@H](O)[C@@H](O[C@H]1O[C@H](CO)[C@H](O)[C@H](O)[C@H]1O)[C@H](O)[C@@H](O)CO
Resp: 0.9767

----------
Please respond with reported extent of growth: maximal OD630 over 24 hr divided by maximal OD of control (control = 1) for every item in the list.
Tested on: Veillonella parvula
method-notes: Twenty-four hour optical density growth in BHI
Assay type: cell-based
experimental-setup: V parvula; 25 μmol/ml
Write the number on its own, no unit after it.

Req: Find the measured extent of growth: maximal OD630 over 24 hr divided by maximal OD of control (control = 1) of OC[C@H]1O[C@@](O)(CO)[C@@H](O[C@H]2O[C@H](CO)[C@@H](O)[C@H](O)[C@H]2O)[C@@H]1O [D-Turanose] with Veillonella parvula as test system.
Resp: 1.0049

Req: Find the measured extent of growth: maximal OD630 over 24 hr divided by maximal OD of control (control = 1) of OC[C@@H](O)[C@@H](O[C@H]1O[C@H](CO)[C@H](O)[C@H](O)[C@H]1O)[C@H](O)[C@@H](O)CO [D-Lactitol, 4-O-α-D-galactopyranosyl-D-glucitol] with Veillonella parvula as test system.
Resp: 0.9054

Req: Find the measured extent of growth: maximal OD630 over 24 hr divided by maximal OD of control (control = 1) of O[C@H]1[C@H](O)[C@@H](O)[C@H](O)[C@@H](O)[C@H]1O [Myo-Inositol] with Veillonella parvula as test system.
Resp: 0.8933

Req: Find the measured extent of growth: maximal OD630 over 24 hr divided by maximal OD of control (control = 1) of CC(=O)N[C@H](C=O)[C@@H](O)[C@H](O)[C@H](O)CO [N-acetyl-D-mannosamine, 2-acetamido-2-deoxy-D-mannose] with Veillonella parvula as test system.
Resp: 1.0213

----------
System: Streptococcus mitis
method-notes: Phenotype microarray metabolic activity
Assay type: cell-based
experimental-setup: S mitis; 48 hrs
Experimental: The extent of metabolic activity of the tested bacteria in the presence of the above-mentioned saccharides after 24 hours and 48 hours was investigated through a high throughput phenotype microarray system (PM) for microbial cells (Biolog Inc.). […] All plates were incubated in an anaerobic atmosphere at 37° C. Color changes were measured spectrophotometrically at 492 nm (Thermo Scientific Multiskan Ascent) at 24 hrs and 48 hrs using the same plate at both time points. […]
Binary label based on metabolic activity: OD 492 nm divided by OD of control (control = 1) with cut-off 1: below gives Met, not below gives Not met.

Req: Determine whether this compound shows metabolic activity: OD 492 nm divided by OD of control (control = 1) lower than 1 (ties excluded): CC(=O)N[C@H](C=O)[C@@H](O)[C@H](O)[C@H](O)CO
Resp: Not met

Req: Determine whether this compound shows metabolic activity: OD 492 nm divided by OD of control (control = 1) lower than 1 (ties excluded): OC[C@H]1O[C@@](CO)(O[C@H]2O[C@H](CO)[C@@H](O)[C@H](O)[C@H]2O)[C@@H](O[C@H]2O[C@H](CO)[C@@H](O)[C@H](O)[C@H]2O)[C@@H]1O
Resp: Not met

Req: Determine whether this compound shows metabolic activity: OD 492 nm divided by OD of control (control = 1) lower than 1 (ties excluded): OC[C@H]1O[C@@](O)(CO)[C@@H](O[C@H]2O[C@H](CO)[C@@H](O)[C@H](O)[C@H]2O)[C@@H]1O
Resp: Not met

Req: Determine whether this compound shows metabolic activity: OD 492 nm divided by OD of control (control = 1) lower than 1 (ties excluded): OC[C@@H](O)[C@@H](O[C@H]1O[C@H](CO)[C@H](O)[C@H](O)[C@H]1O)[C@H](O)[C@@H](O)CO
Resp: Met
